B1: PLAGL1 (parent)
chain: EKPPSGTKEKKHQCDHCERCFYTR

# Variants of: B1
# Assay protocol: protein stability index of a GFP-peptide fusion (GPS, HEK-293T) (PSI 1-6); higher = more stable;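 note: lentivirally expressed fusions sorted by FACS into six bins by GFP to DsRed ratio, PSI derived from sequencing read proportions per bin multiplied by bin number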
# Study conditions: c terminus: a fixed tail appended
Quantity measured: protein stability index
Write the value as a bare number.

Consider the variant `K10H` and give its measured protein stability index.
4.05

// next record `C17V`
4.05

// next record `E1D`
3.99

// next record `E9W`
3.08

// next record `C14G`
3.96

Okay, now this variant:
Consider the variant `E1Y` and give its measured protein stability index.
3.04
